# Target or test system: interaction between GST-MAGEA11 MHD and FAM-PCF11_4 peptide (MAGE-A11:PCF11) (Homo sapiens (Human), UniProt P43364)
# Sequence (P43364 218-429): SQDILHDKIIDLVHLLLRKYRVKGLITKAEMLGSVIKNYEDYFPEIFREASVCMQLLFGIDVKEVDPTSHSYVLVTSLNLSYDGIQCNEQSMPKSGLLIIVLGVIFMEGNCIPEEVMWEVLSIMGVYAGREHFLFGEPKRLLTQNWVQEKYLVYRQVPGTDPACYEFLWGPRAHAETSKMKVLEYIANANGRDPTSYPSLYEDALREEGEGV
# Experiment notes: TR-FRET dose response competition assay for disruption of MAGE-A11:PCF11 binding
# Condition description: Dose response TR-FRET screening of nine scaffold groups against MAGE-A11:PCF11; read-out: consensus IC50
Observed property: IC50 (µM)

Molecule	Observed property	Observed measurement
Clc1ccc2c(NCCCNCc3ccc4[nH]ccc4c3)ccnc2c1 [SJ000520909-2]	IC50	67.1
CSc1ccc(C2Nc3ccccc3C(=O)N2CCCN2CCOCC2)cc1 (centres unmarked) [SJ000803762-1]	IC50	71.3
CCCn1c(=O)c2nc(-c3ccc(OCC(=O)NCCN)cc3)[nH]c2n(CCC)c1=O [SJ000288288-2]	IC50	69.9
COc1ccc(C2Nc3ccccc3C(=O)N2CCCN2CCOCC2)cc1OC(F)F (centres unmarked) [SJ000803760-1]	IC50	72.1
FC(F)(F)c1cc(-c2ccc3c(NCCCNCc4cccc5c4OCO5)ccnc3c2)cc(C(F)(F)F)c1 [SJ000311272-1]	IC50	9.02
Cc1ccc(-c2nc(S(=O)(=O)c3ccc(Cl)cc3)c(N3CCOCC3)o2)cc1 [SJ000140851-1]	IC50	69.9
CC(=O)N(C1=C(Cl)C(=O)c2ccccc2C1=O)c1cccc(I)c1 [SJ000024931-1]	IC50	69.9
CCCn1c(=O)[nH]c(=O)c2c1nc(-c1ccc(C(C)(C)C)cc1)n2CCN1CCOCC1 [SJ000377955-1]	IC50	69.9
COc1ccc(C2Nc3ccccc3C(=O)N2Cc2ccccc2)cc1Cn1cc([N+](=O)[O-])cn1 (centres unmarked) [SJ000288433-1]	IC50	69.9
COc1ccc(-c2cc3ncn(CC(=O)NCc4ccc(Cl)cc4)c(=O)c3s2)cc1 [SJ000457991-1]	IC50	69.9
Nc1nc(Nc2ccc(Cl)c(Cl)c2)nc2ccccc12 [SJ000201376-1]	IC50	69.9
O=S(=O)(c1ccc(Cl)cc1)c1nc(-c2ccccc2Cl)oc1N1CCOCC1 [SJ000141574-1]	IC50	69.9
CCOc1ccc(-c2nc(C#N)c(N3CCOCC3)o2)cc1 [SJ000041896-1]	IC50	69.9
c1ccc(Cc2ccc3c(NCCCNCc4cccc5c4OCO5)ccnc3c2)cc1 [SJ000311308-1]	IC50	46.1
COc1cccc(CNCCCNc2ccnc3cc(-c4ccc(C(C)(C)C)cc4)ccc23)c1O [SJ000311287-1]	IC50	4.67
COCCn1c(-c2ccc(C)cc2)nc2c1c(=O)[nH]c(=O)n2CC(C)C [SJ000421396-1]	IC50	69.9
COc1ccc(CN2C(=O)c3ccccc3NC2c2ccc(F)cc2)cc1 (centres unmarked) [SJ000510740-1]	IC50	69.9
COP(=O)(OC)c1nc(-c2ccc(C)cc2)oc1N1CCOCC1 [SJ000090156-1]	IC50	69.9
CCCN1C(=O)c2ccccc2NC1c1ccc(O)c(OCC)c1 (centres unmarked) [SJ000019510-1]	IC50	69.9
FC(F)(F)c1ccc2c(NCCCNCc3ccc4[nH]ccc4c3)ccnc2c1 [SJ000521054-1]	IC50	0.397
O=C1c2ccccc2NC(c2ccc(Cl)c(Cl)c2)N1Cc1ccccc1 (centres unmarked) [SJ000551208-1]	IC50	69.9
CCCN(CCCCNc1ccnc2cc(Cl)ccc12)Cc1cc(Br)ccc1O [SJ000311196-1]	IC50	69.9
Cc1cccc(NC2=C(N)C(=O)c3ccccc3C2=O)c1 [SJ000024934-1]	IC50	69.9
COc1cccc(F)c1CNCCCNc1ccnc2cc(Cl)ccc12 [SJ000311328-2]	IC50	69.9
CN(C)C(=O)Cn1cnc2cc(-c3ccccc3)sc2c1=O [SJ000425603-1]	IC50	69.9
Cc1ccc(S(=O)(=O)c2nc(-c3ccc(Cl)cc3)oc2N2CCOCC2)cc1 [SJ000230693-1]	IC50	69.9
CC(C)(C)c1ccc(C2=C(c3ccc([N+](=O)[O-])cc3)C(=O)OC2)cc1 [SJ000368097-1]	IC50	69.9
CC1CN(c2oc(-c3ccc(Cl)cc3)nc2C#N)CC(C)O1 (centres unmarked) [SJ000478208-1]	IC50	69.9
CCOP(=O)(OCC)c1nc(-c2ccc([N+](=O)[O-])cc2)oc1N1CCOCC1 [SJ000092459-1]	IC50	69.9
CCc1ccc(C2=C(c3ccc([N+](=O)[O-])cc3)C(=O)OC2)cc1 [SJ000368127-1]	IC50	69.9
FC(F)(F)c1ccc2c(NCCCNCc3ccccc3C(F)(F)F)ccnc2c1 [SJ000521049-1]	IC50	69.9
OCCNCCNCc1ccc2[nH]c3ccccc3c2c1 [SJ000053962-1]	IC50	69.9
CCCn1c(=O)[nH]c(=O)c2c1nc(-c1ccc(OC(F)(F)C(F)C(F)(F)F)cc1)n2CCOC (centres unmarked) [SJ000379374-1]	IC50	69.9
CCOc1ccc(NC2=C(Cl)C(=O)c3ccccc3C2=O)cc1 [SJ000122936-1]	IC50	69.9
COCCn1c(-c2ccc(SC)cc2)nc2c1c(=O)[nH]c(=O)n2CC(C)C [SJ000378917-1]	IC50	69.9
